B1: Interleukin-5 receptor subunit alpha (Homo sapiens), Q01344-2 (parent)
chain: MIIVAHVLLILLGATEILQADLLPDEKISLLPPVNFTIKVTGLAQVLLQWKPNPDQEQRNVNLEYQVKINAPKEDDYETRITESKCVTILHKGFSASVRTILQNDHSLLASSWASAELHAPPGSPGTSIVNLTCTTNTTEDNYSRLRSYQVSLHCTWLVGTDAPEDTQYFLYYRYGSWTEECQEYSKDTLGRNIACWFPRTFILSKGRDWLAVLVNGSSKHSAIRPFDQLFALHAIDQINPPLNVTAEIEGTRLSIQWEKPVSAFPIHCFDYEVKIHNTRNGYLQIEKLMTNAFISIIDDLSKYDVQVRAAVSSMCREAGLWSEWSQPIYVGFSR

# Variants of: B1
# condition: with il5_human IL5, P05113
# Sequence (P05113 whole entry): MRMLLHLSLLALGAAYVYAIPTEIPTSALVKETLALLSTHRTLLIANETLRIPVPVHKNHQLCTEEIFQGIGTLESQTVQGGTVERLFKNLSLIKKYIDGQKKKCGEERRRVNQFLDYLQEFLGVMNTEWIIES
measure: effect of a mutation on the interaction

Before answering, review these 5 worked examples.
Value of effect of a mutation on the interaction reported for the variant R80A is decreasing interaction

Kindly note the recorded effect of a mutation on the interaction for M315A , which is decreasing interaction

Looking up R208K , I found its effect of a mutation on the interaction recorded as decreasing interaction

Reported effect of a mutation on the interaction ( D75E ) = decreasing interaction

So for E78P , the logged effect of a mutation on the interaction turned out to be disrupting interaction

Now consider a different variant.
Recorded result, W178A , effect of a mutation on the interaction: decreasing interaction

These entries and their values trace back to IntAct's records for PubMed 22153509.
